Values were extracted from paper PMC10384011.

- System: BV2 microglia cells
- experimentDescription: Nitrite release (Griess reaction) in LPS-treated BV2 microglia
- Assay type: cell-based
- conditionDetails: 10 μM, LPS 1 μg/mL, 24 h, basal = 100
readoutType: Nitrite Release after 24 h (%)
Give bare numbers, in %.

[
  {
    "structureString": "COc1ccc(-c2cc(N)cc(-c3ccccc3)c2)cc1",
    "Nitrite Release after 24 h (%)": 103
  },
  {
    "structureString": "Nc1cc(-c2ccccc2)cc(-c2ccccc2)c1",
    "Nitrite Release after 24 h (%)": 122
  },
  {
    "structureString": "Nc1cc(-c2ccccc2)cc(-c2ccc(Cl)cc2)c1",
    "Nitrite Release after 24 h (%)": 110
  }
]

Would you kindly look at the next entry?
(Q) Please look up its Nitrite Release after 24 h: `Cc1ccc(-c2cc(N)cc(-c3ccccc3)c2)cc1`
(A) 105

====

- targetSystem: ovine COX-1 (Ovis aries)
- Construct: purchased Cayman Chemicals 701050
- Sequence (P05979 25-600): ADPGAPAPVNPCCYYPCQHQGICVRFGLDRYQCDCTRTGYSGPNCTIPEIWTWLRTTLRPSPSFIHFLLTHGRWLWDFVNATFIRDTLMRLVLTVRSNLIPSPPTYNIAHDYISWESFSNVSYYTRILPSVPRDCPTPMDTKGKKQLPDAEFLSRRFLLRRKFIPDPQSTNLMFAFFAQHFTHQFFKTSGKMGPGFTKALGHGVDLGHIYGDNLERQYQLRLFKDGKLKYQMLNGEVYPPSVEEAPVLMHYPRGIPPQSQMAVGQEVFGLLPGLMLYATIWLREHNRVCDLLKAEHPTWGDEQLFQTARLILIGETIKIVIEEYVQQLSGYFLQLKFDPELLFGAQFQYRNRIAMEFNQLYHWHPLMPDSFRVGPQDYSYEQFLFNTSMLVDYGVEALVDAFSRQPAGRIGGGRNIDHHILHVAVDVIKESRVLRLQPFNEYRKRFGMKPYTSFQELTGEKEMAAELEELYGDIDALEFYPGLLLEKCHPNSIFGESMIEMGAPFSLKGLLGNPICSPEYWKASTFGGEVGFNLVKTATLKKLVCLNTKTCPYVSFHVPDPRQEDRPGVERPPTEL
- experimentDescription: Cyclooxygenase colorimetric inhibitor screening assay, COX-1;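 also: COX peroxidase activity read colorimetrically as oxidized TMPD at 590 nm, arachidonic acid as substrate, inhibitors tested at 0.001–50 µM from DMSO stocks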
- Format: biochemical
- conditionDetails: ovine COX-1, 50 µM; read-out: oCOX-1; % Inhibition at 50 µM (converted)
Threshold rule: inhibition at 50 µM greater than or equal to 50% is YES; below that, NO.

[
  {
    "compound": "Cc1ccc(-c2cc(N)cc(-c3ccccc3)c2)cc1 [Compound 3b, 4-Methyl-5′-amino-m-terphenyl]",
    "class": "YES"
  },
  {
    "compound": "Nc1cc(-c2ccccc2)cc(-c2ccccc2)c1C(=O)O [Compound 2a, 6-Amino-2,4-diphenylbenzoic acid]",
    "class": "NO"
  }
]

(Q) // inclusive: inhibition at 50 µM at least 50%? input: Nc1cc(-c2ccc(Br)cc2)cc(-c2ccc(Br)cc2)c1C(=O)O [Compound 2f]
(A) NO

(Q) COc1ccc(-c2noc(CC(=O)O)c2-c2ccc(OC)cc2)cc1 [Mofezolac, mofezolac, reference compound] ?
(A) YES

(Q) Now the compound O=C(O)c1c(Nc2ccccc2)cc(-c2ccccc2)cc1-c1ccccc1 [Compound 2g, 6-Phenylamino-2,4-diphenylbenzoic acid]
(A) NO

(Q) Then COc1ccc(-c2cc(N)cc(-c3ccccc3)c2)cc1 [Compound 3e, 4-Methoxy-5′-amino-m-terphenyl] ?
(A) YES

(Q) Same read-out for Nc1cc(-c2ccc(Cl)cc2)cc(-c2ccc(Cl)cc2)c1 [Compound 3d, 4,4″-Dichloro-5′-amino-m-terphenyl] ?
(A) NO

(Q) And what about the compound Nc1cc(-c2ccccc2)cc(-c2ccc(Cl)cc2)c1 [Compound 3c, 4-Chloro-5′-amino-m-terphenyl] ?
(A) YES

(Q) Repeat with O=C(Nc1cc(-c2ccc(Br)cc2)cc(-c2ccc(Br)cc2)c1)NC1CCCC1 [Compound 4f]
(A) NO

(Q) Okay, and Nc1cc(-c2ccccc2)cc(-c2ccccc2)c1 [Compound 3a, 5′-Amino-m-terphenyl] ?
(A) YES

(Q) Record: Cc1ccc(-c2cc(N)c(C(=O)O)c(-c3ccccc3)c2)cc1 [Compound 2b, 6-Amino-2-phenyl-4-(4-tolyl)benzoic acid]
(A) NO

====

- targetSystem: human COX-2 (Homo sapiens, UniProt P35354)
- Construct: purchased Cayman Chemicals 701050
- Sequence (P35354 18-604): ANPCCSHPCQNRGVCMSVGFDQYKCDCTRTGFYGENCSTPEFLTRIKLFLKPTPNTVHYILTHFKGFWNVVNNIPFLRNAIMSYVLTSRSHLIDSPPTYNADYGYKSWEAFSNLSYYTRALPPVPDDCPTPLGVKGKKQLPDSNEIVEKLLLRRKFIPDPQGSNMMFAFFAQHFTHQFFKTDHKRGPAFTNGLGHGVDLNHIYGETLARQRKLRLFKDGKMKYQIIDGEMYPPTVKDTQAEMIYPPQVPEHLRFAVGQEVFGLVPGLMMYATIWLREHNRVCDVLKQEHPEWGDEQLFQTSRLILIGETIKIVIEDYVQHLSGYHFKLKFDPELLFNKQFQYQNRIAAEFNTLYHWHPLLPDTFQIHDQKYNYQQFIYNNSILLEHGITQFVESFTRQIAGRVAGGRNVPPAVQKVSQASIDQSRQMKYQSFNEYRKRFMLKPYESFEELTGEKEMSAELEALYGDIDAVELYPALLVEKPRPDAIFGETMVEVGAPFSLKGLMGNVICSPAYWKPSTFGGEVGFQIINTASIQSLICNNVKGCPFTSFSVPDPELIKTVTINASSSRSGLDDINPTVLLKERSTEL
- experimentDescription: Cyclooxygenase colorimetric inhibitor screening assay, COX-2;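 also: peroxidase activity of COX-2 followed colorimetrically through formation of oxidized TMPD at 590 nm, with arachidonic acid as substrate, compounds tested from 0.001 to 50 µM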
- Assay type: biochemical
- conditionDetails: human COX-2, 50 µM; read-out: hCOX-2; % Inhibition at 50 µM
readoutType: inhibition at 50 µM (%)
Give bare numbers, in %.

[
  {
    "compound": "Nc1cc(-c2ccccc2)cc(-c2ccccc2)c1C(=O)O [Compound 2a, 6-Amino-2,4-diphenylbenzoic acid]",
    "inhibition at 50 µM [%]": 3
  }
]

Count: 5. Required value per item: inhibition at 50 µM.
1. Nc1cc(-c2ccccc2)cc(-c2ccccc2)c1 [Compound 3a, 5′-Amino-m-terphenyl]
2. Cc1ccc(-c2cc(N)c(C(=O)O)c(-c3ccccc3)c2)cc1 [Compound 2b, 6-Amino-2-phenyl-4-(4-tolyl)benzoic acid]
3. COc1ccc(-c2cc(N)cc(-c3ccccc3)c2)cc1 [Compound 3e, 4-Methoxy-5′-amino-m-terphenyl]
4. Nc1cc(-c2ccc(Cl)cc2)cc(-c2ccc(Cl)cc2)c1C(=O)O [Compound 2d]
5. O=C(O)c1c(Nc2ccccc2)cc(-c2ccccc2)cc1-c1ccccc1 [Compound 2g, 6-Phenylamino-2,4-diphenylbenzoic acid]

(A)
1: 70; 2: 2; 3: 8; 4: 13; 5: 13
